Data provenance: the supplement of paper PMC6555819

Test system: PPARg:RXRa 270nM:90nM, anti-RXR (NR concentration 270 nM, RXRa partner concentration 90 nM)
assayProtocol: PBM binding z-score (relative to random genomic background probes); higher = stronger binding; sequences stand for … in GC…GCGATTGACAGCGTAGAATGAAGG
assayMetric: PBM binding z-score
Reply briefly: the number, and no unit.

residues	PBM binding z-score
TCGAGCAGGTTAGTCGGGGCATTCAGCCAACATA	-0.00465
CCGACTGGGGCAAGGTTACCAAAACGCACAGCCA	3.62
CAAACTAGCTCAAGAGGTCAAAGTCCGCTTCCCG	3.87

// PBM binding z-score value for `ACTAGTTGGTCAGCTGAAGTCACACACAATTCGG` : 0.0912

// PBM binding z-score value for `CAGCCTAGGTCAGTGCCAGTATAGGAGGAACGTT` : 0.475

// PBM binding z-score value for `TCGAGTAGGTTAGGGACATTCAGAATGGCGTCGA` : 0.659

// PBM binding z-score value for `TCTATTAGTTGATTAGGACAACCGAAACAGCGGA` : 2.18

// PBM binding z-score value for `GCTAGCAGGCCATTTGGGTCAATCAATGACGGGC` : 0.364

// PBM binding z-score value for `CAAACTAGGTCACGAAAGGTCTAAGTCGAATGAC` : 7.4

// PBM binding z-score value for `CAAGCTAGGTCACGAAAGGTCAAAGTCGAATGAC` : 7.14

// PBM binding z-score value for `ACTATTAGTTGACCTAGGGCAACCGATACGACGC` : 1.48

// PBM binding z-score value for `CAAACTAGGTCAAGGTCAATGTCGGTTTGTGCCA` : 7.99

// PBM binding z-score value for `GCAGACAGGTGAAACCCAGGTAACTCAGGGTGGC` : -0.0881

----------
System: RARg:RXRa (NR concentration 270 nM, RXRa partner concentration 90 nM)
assayProtocol: PBM binding z-score (relative to random genomic background probes); higher = stronger binding; sequences stand for … in GC…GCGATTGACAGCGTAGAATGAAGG
Each record's class is read off its PBM binding z-score using these ranges: lower level: < 1; middle level: ≥ 1 and < 3; upper level: ≥ 3

residues	systemName	labelClass
CCTCGGAGGACAACAGGAGGTCAGTGCTGCCAGA	RARg:RXRa (NR concentration 270 nM, RXRa partner concentration 90 nM)	upper level
TATACAGGGTCAAAAGCCAGAGTACGAATGTCGA	RARg:RXRa (NR concentration 270 nM, RXRa partner concentration 90 nM)	upper level
TCTAGTTGGTCACGGAGGTTACACACGACGGGTA	RARg:RXRa (NR concentration 270 nM, RXRa partner concentration 90 nM)	middle level
CCTACTGGGCCATCAGGTCATTAATATCAACGTT	RARg:RXRa (NR concentration 270 nM, RXRa partner concentration 90 nM)	middle level
CAAACTAGGTCCAAGGTCAAAGTCGAGCCAACCA	RARg:RXRa (NR concentration 270 nM, RXRa partner concentration 90 nM)	upper level

Input: Quick check: band for `TCATCTAGGTAAAGGTGAAAGTCGAACGATATGA`
Output: middle level

Input: Quick check: band for `CCGACTCGGGCAGAAAGGTTACCATACCATCCGG`
Output: middle level

Input: Quick check: band for `CCTATTAGTTGACCATAAGGGCATCCGAAGCTCG`
Output: middle level

----------
System: THRa:RXRa (NR concentration 90 nM, RXRa partner concentration 90 nM)
assayProtocol: PBM binding z-score (relative to random genomic background probes); higher = stronger binding; sequences stand for … in GC…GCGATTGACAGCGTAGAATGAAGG
Item-by-item account of PBM binding z-score
Reply briefly: the number, and no unit.

Sample records with PBM binding z-score:
residues	PBM binding z-score
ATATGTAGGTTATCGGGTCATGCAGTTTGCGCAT	3.54
CGAACGAGGGCATGTGTTGATAGCAAATGCCGAT	1.03

--- query ---
// PBM binding z-score value for `TTACCTAGGTGAGCTGAGGTCGTTGATCCAACTC` : 4.18

----------
Test system: RARb:RXRa (NR concentration 270 nM, RXRa partner concentration 90 nM)
assayProtocol: PBM binding z-score (relative to random genomic background probes); higher = stronger binding; sequences stand for … in GC…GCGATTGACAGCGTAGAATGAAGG
Item-by-item account of PBM binding z-score

residues	experimentalValue
GCAGACAGGTGAAACGCATGTAACTCAGGGTGGC	0.532
CGTCAAAGTTCAACTCAGGTAACGTAAAGCACGC	5.15
TGAATGAGGGTATAAGATCAGGGAACGTTGCAAA	0.303
AGAGTGAGGTTATTAAGATCAGGGAATTGCGGTC	1.7

// PBM binding z-score value for `GCACACAGGTGAAACGCAGGTAACTCAGGGTGGC` : 0.803

// PBM binding z-score value for `CGTCCAAGGTCAGAGAGGTCAGGGAATGCCGAGT` : 5.55

// PBM binding z-score value for `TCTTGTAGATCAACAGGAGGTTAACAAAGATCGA` : 0.717

// PBM binding z-score value for `TAGCCTAGGTCATGCGGGCCAGTAGAGTGTCGGC` : 3.75

// PBM binding z-score value for `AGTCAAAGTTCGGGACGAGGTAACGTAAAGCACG` : 1.86

----------
Item-by-item account of PBM binding z-score
Test system: RXRa homodimer (NR concentration 180 nM)
assayProtocol: PBM binding z-score (relative to random genomic background probes); higher = stronger binding; sequences stand for … in GC…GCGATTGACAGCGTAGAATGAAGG
Reply briefly: the number, and no unit.

Sample records with PBM binding z-score:
residues	experimentalValue
CTACCAAGGAGAACAAGGTCGTTGATTACTATTC	0.732
AGAACGAGGGCAATGAATTGATAGCACGGGTGGC	0.98
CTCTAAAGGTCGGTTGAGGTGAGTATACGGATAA	2.44
GCTATTAGTTGAAAGGGCAGCCGAATGATTCTCG	0.636

--- query ---
// PBM binding z-score value for `CCTAGCAGGGCAGGGTCACTCAAGCATTTCGCTT` : 4.08

----------
Test system: PPARg:RXRa 30nM:10nM, anti-RXR (NR concentration 30 nM, RXRa partner concentration 10 nM)
assayProtocol: PBM binding z-score (relative to random genomic background probes); higher = stronger binding; sequences stand for … in GC…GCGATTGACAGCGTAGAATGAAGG
assayMetric: PBM binding z-score
Reply briefly: the number, and no unit.

Sample records with PBM binding z-score:
residues	assayMetric	experimentalValue
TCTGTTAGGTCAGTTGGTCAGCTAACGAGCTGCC	PBM binding z-score	3.02
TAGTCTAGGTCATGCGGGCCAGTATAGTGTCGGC	PBM binding z-score	1.78
TAACCAAGGTGAGCTGAGGTCGTTGATCCAACTC	PBM binding z-score	-0.0525
ACTAGTAGTTGAGACGAGGGCAACCGATAGGTTG	PBM binding z-score	-0.398
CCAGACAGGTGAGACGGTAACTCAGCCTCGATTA	PBM binding z-score	-0.249
CCGACTGGAGCAAAGGTTACCATACTCAGTACGA	PBM binding z-score	8.2

// PBM binding z-score value for `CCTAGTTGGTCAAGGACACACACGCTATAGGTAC` : 0.287

// PBM binding z-score value for `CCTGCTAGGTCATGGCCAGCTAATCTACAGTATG` : 0.634

// PBM binding z-score value for `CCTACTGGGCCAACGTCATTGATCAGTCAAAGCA` : -0.362

// PBM binding z-score value for `CCTTACGGATCACGAGGTTATAGCACGACGAGCG` : 0.0325

// PBM binding z-score value for `CTACCAAGGTGAACAAGGTCGTTGAATACTATTC` : 0.333

// PBM binding z-score value for `CCAGACAGGTGAAAGGCAACTCAGTCTGGTACGC` : 1.12

// PBM binding z-score value for `TCATATAGGTAATACAGGCGAAAGTCGGCATCTA` : 4.01

// PBM binding z-score value for `ACAGACAGGTGAGTGAAGGTATCTCAGCTGGACG` : 0.319

// PBM binding z-score value for `ATCGAAAGGTCGACGAGGCGAGTATACACCGTTT` : 0.711

// PBM binding z-score value for `TCATAAAGGTAAAAGGTGAAAGTCGGTGTGGTAA` : 6.38

// PBM binding z-score value for `CCTCGGATGACAGAAGGTCAGAGCTGTCCGCTTT` : -0.64

// PBM binding z-score value for `CCTTACGGGTCACTCCCGGTTATAGCATCGGAGT` : 0.522

// PBM binding z-score value for `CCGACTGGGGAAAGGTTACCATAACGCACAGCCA` : 1.61
